Test system: MS-1 cells
Assay: [Ca2+]i mobilization assay in MS-1 cells
Assay type: cell-based, murine
Conditions: three experiments, read-out: Mean EC50 (μM), dose-dependent changes in intracellular Ca2+
Where a SMILES comes first, the peptide text is derived from it. [ ]: non-standard residue; d: D form.
Measured metric: EC50 (µM)

1) CC[C@H](C)[C@H](NC(=O)[C@H](Cc1ccccc1)NC(=O)[C@@H](N)CO)C(=O)N[C@@H](CC(C)C)C(=O)N[C@@H](CCCNC(=N)N)C(=O)N[C@@H](Cc1ccc(O)cc1)C(N)=O [SEQ ID NO 17, SFILRY-NH2] (H-SFILRY-NH2; N-terminus assumed)	0.99
2) CC(C)C[C@H](NC(=O)[C@H](CCCCN)NC(=O)[C@H](Cc1ccccc1)NC(=O)[C@@H](N)CO)C(=O)N[C@@H](CCCNC(=N)N)C(=O)N[C@H](Cc1ccc(O)cc1)C(N)=O [SEQ ID NO 8, SFKLRy-NH2(d-form)] (H-SFKLR[dY]-NH2; N-terminus assumed)	1.14
3) CC[C@H](C)[C@H](NC(=O)[C@H](Cc1ccccc1)NC(=O)[C@@H](N)CO)C(=O)N[C@@H](CC(C)C)C(=O)N[C@@H](CCCNC(=N)N)C(=O)N[C@@H](Cc1ccccc1)C(N)=O [SEQ ID NO 22, SFILRF-NH2] (H-SFILRF-NH2; N-terminus assumed)	2.01
4) CC(C)C[C@H](NC(=O)[C@H](CCCCN)NC(=O)[C@H](Cc1ccccc1)NC(=O)[C@@H](N)CO)C(=O)N[C@@H](CCCNC(=N)N)C(=O)N[C@@H](CCCNC(=N)N)C(N)=O [SEQ ID NO 16, SFKLRR-NH2] (H-SFKLRR-NH2; N-terminus assumed)	2.66
5) CC(C)C[C@H](NC(=O)[C@H](CCCCN)NC(=O)[C@H](Cc1ccccc1)NC(=O)[C@@H](N)[C@@H](C)O)C(=O)N[C@@H](CCCNC(=N)N)C(=O)N[C@@H](Cc1ccc(O)cc1)C(N)=O [SEQ ID NO 24, TFKLRY-NH2] (H-TFKLRY-NH2; N-terminus assumed)	3.87
6) CC(C)C[C@H](NC(=O)[C@H](CCCCN)NC(=O)[C@H](Cc1ccccc1)NC(=O)[C@@H](N)CO)C(=O)N[C@@H](CCCNC(=N)N)C(=O)N[C@@H](Cc1c[nH]c2ccccc12)C(N)=O [SEQ ID NO 19, SFKLRW-NH2] (H-SFKLRW-NH2; N-terminus assumed)	2.37
7) CC(C)C[C@H](NC(=O)[C@H](CCCCN)NC(=O)[C@H](Cc1ccccc1)NC(=O)[C@@H](N)CO)C(=O)N[C@@H](CCCNC(=N)N)C(=O)N[C@@H](Cc1ccccc1)C(N)=O [SEQ ID NO 21, SFKLRF-NH2] (H-SFKLRF-NH2; N-terminus assumed)	3.16

Origin of values: patent US9925398B2
